Hey, just so you know, these numbers are from ChEMBL document CHEMBL1201862.

GI50 overview
Tested on: NCI-H23
Test: NCI tumour cell line growth inhibition, 48 h
Active and inactive are the calls of the source. Cut-off read from the data, not from the text of the source: active = GI50 up to about 1.1 µM and inactive = higher.

Some solved cases for reference:
COC(=N)C1(C#N)NC(c2ccsc2)C(C#N)(C#N)NC1c1ccsc1 (stereo not given): > 100 µM (inactive)
O=C(CCN1CCC(CCO)CC1)Nc1ccc2c(c1)C(=O)c1ccc(NC(=O)CCN3CCC(CCO)CC3)cc1C2=O: 26.5 µM (inactive)
CN1CCN(c2cc(-c3cc4ccccc4o3)oc(=O)c2C#N)CC1: > 100 µM (inactive)
CCCCc1ccc(Nc2nc(Cl)c3c(ncn3C3CC(Oc4ccc(C)cc4)C(COc4ccc(C)cc4)O3)n2)cc1 (stereo not given): > 100 µM (inactive)

Please examine the following record next.
Exercise: Consider the compound `COc1cccc(/C=C2\N=C(Cl)OC2=O)c1O` and give its measured GI50.
Solution: > 100 µM (inactive)

###

Test system: KM12
Assay: NCI tumour cell line growth inhibition, 48 h
Active and inactive are the calls of the source. Rule as the data show it: active = GI50 up to about 1.1 µM and inactive = higher.
VALUE_TYPE: GI50

Some solved cases for reference:
Nc1nc(SCCc2ccccc2)c2nc[nH]c2n1: > 100 µM (inactive)
COC1(OC)CCCc2c1no[n+]2[O-]: > 100 µM (inactive)
COc1ccc(C2=C[C@]3(O)CCCN3C[C@@H]2c2ccc(OC)c(OC)c2)cc1: < 0.0001 µM (active)
Nc1ccc(Oc2ccc(C34CC5CC6C3CC3CC4C(C5)C6(c4ccc(Oc5ccc(N)cc5)cc4)C3)cc2)cc1: 19.5 µM (inactive)
CCCS(=O)OC1C(C2COC(C)(C)O2)OC2OC(C)(C)OC21 (stereo not given): 13.1 µM (inactive)

Exercise: Consider the compound `CCCCCn1c(=O)c2c(=O)[nH][nH]c2c2ccccc21` and give its measured GI50.
Solution: > 100 µM (inactive)

Exercise: What would you report for `C[C@@H]1CC[C@@H](C)[C@](C)(CCc2ccoc2)C/C=C\C=C/1C(=O)O` ?
Solution: > 50 µM (inactive)

Exercise: What would you report for `CN(C)CCNC(=O)c1cccc2c1Oc1c(cccc1[N+](=O)[O-])O2` ?
Solution: 1.26 µM (inactive)

Exercise: What would you report for `O=c1[nH]nc(-c2ccccc2)c2[nH]c3c4ccccc4ccc3c12` ?
Solution: 0.692 µM (active)

Exercise: What would you report for CCc1ccc2c(c1)CC1(C2)Cc2cc3c(cc2C1)C(=O)CC3 (stereo not given) ?
Solution: 10.5 µM (inactive)

Exercise: What would you report for `c1ccc(CC2(c3cc4ccccc4[nH]3)OCCO2)nc1` ?
Solution: > 100 µM (inactive)

Exercise: What would you report for `CN(C)NC1=C([N+](=O)[O-])C=NN(c2ccccc2)C1` ?
Solution: 2.52 µM (inactive)

Exercise: What would you report for `Nc1nc(Nc2ccccc2)c2[nH]cnc2n1` ?
Solution: 35.6 µM (inactive)

###

Test system: HOP-18
Experiment: NCI tumour cell line growth inhibition, 48 h
Activity calls are given as the source filed them. Cut-off read from the data, not from the text of the source: active = GI50 up to about 1.1 µM and inactive = higher.
Outcomes you can answer with include only these: active, inactive

Recorded results for 2 compounds are shown here.
O=C(O)[C@@H](NS(=O)(=O)c1ccc2ccccc2c1)c1ccccc1: inactive
COc1ccc(/C=C\c2cc(OC)c(OC)c(OC)c2)cc1OC(=O)C(N)CCC(=O)O (stereo not drawn): active

Exercise: Could you check what this test reported for CC1CC(C)C(=O)C(C(=O)CC2CC(=O)NC2=O)C1 (stereo not drawn) ?
Solution: inactive

###

System: UACC-62
Experiment: NCI tumour cell line growth inhibition, 48 h
Active and inactive are the calls of the source. Cut-off read from the data, not from the text of the source: active = GI50 up to about 1.1 µM and inactive = higher.
Outcomes you can answer with include only these: True = active, False = inactive

Recorded results for 3 molecules are shown here.
COc1cccc(C2C(C(=O)O)=C(CO)Oc3cc4c(cc32)OCO4)c1OC (centres undefined): False
N#Cc1c(N)c2c(c(-c3ccccc3)c1-c1ccccc1)C(=O)N(Nc1ccccc1)C2=O: False
CC1OC(O[C@H]2CC[C@]3(C=O)[C@H]4CC[C@]5(C)[C@H](C6=CC(=O)OC6)CC[C@]5(O)[C@@H]4C=C[C@]3(O)C2)CC(O)C1O (some centres undefined): True

Exercise: Could you check what this test reported for `O=C(O)/C=C\C(=O)c1ccc(Cl)cc1` ?
Solution: False

###

Tested on: Malme-3M
Assay: NCI tumour cell line growth inhibition, 48 h
Active and inactive are the calls of the source. No stated cut-off is given here; in the data, active = GI50 up to about 1.1 µM and inactive = higher.
Outcomes you can answer with include only these: t (active), f (inactive)

Recorded results for 5 compounds are shown here.
C=CCc1cccc(/C=N\N/C(N)=N/O)c1O: f
O=C(CCN1CCC(CCO)CC1)Nc1ccc2c(c1)C(=O)c1ccc(NC(=O)CCN3CCC(CCO)CC3)cc1C2=O: f
COC(=O)CCC(C)C1CCC2C3CCC4CC5CCC4(C)C3(O5)C(Br)C(Br)C12C (stereo unspecified): f
COc1ccc2c3c1O[C@]1(C)C34CCN(C)C(C2)C42C=C[C@@]1(OC)c1c(O)ccc(O)c12: f
Cc1ccc2c(c1)-c1c(C#N)c(N)nc(-c3ccccc3)c1CCS2(=O)=O: f

Exercise: Could you check what this test reported for `CC(=O)OCCc1cc2ccccc2oc1=O` ?
Solution: f

Exercise: What would you report for `COc1cc(-c2nc3ccccn3c2/N=C/c2cc(Br)cc(Br)c2O)ccc1O` ?
Solution: f

Exercise: What would you report for `O=C(O/N=C1/CCCC/C1=C\c1ccccc1)c1ccc(Cl)c(Cl)c1` ?
Solution: t

Exercise: What would you report for `CO[P@]1(=O)O[C@@H](c2ccccc2)[C@H](O)[C@@]1(O)c1ccccc1` ?
Solution: f

###

Test system: UO-31
Experiment: NCI tumour cell line growth inhibition, 48 h
The source made the active and inactive calls. No stated cut-off is given here; in the data, active = GI50 up to about 1.1 µM and inactive = higher.
Outcomes you can answer with include only these: label 1 (active), label 0 (inactive)

Recorded results for 10 compounds are shown here.
CN(C)CCNC(=O)c1cccc2ccc(-c3ccc(O)cc3)nc12: label 0
O=C(O)C1CC2(C1)CC(C(=O)O)C2 (centres undefined): label 0
C1C2CC3CC1CC(c1nn4c(C56CC7CC(CC(C7)C5)C6)nnc4s1)(C2)C3: label 0
Nc1c(-c2ccc(Cl)cc2Cl)[n+]([O-])c2ccccc2[n+]1[O-]: label 0
O=C(O/N=C1/CCC/C1=C\c1ccccc1)c1ccc(Cl)c(Cl)c1: label 0
CC1=C(C(=O)Nc2ccccc2C)C(c2ccc(N(C)C)cc2)C(C(=O)Nc2ccccc2C)=C(C)N1: label 0
CCCCCCCCCCCCCCCCCCNC(=O)C(N)Cc1ccc(OCc2ccccc2)cn1 (centres undefined): label 0
COc1ccccc1NC(=O)C1=C(C)NC(C)=C(C(=O)Nc2ccccc2OC)C1c1ccccc1[N+](=O)[O-]: label 0
CC1Oc2c(c(O)cc3oc(=O)cc(-c4ccccc4)c23)C(=O)C1C (centres undefined): label 0
CC1(C)/C(=N\Nc2ccc([N+](=O)[O-])cc2[N+](=O)[O-])C2CCC1C2 (centres undefined): label 0

Exercise: Could you check what this test reported for Cc1cc(C23OC4COC(C)(C)OC4C2OC(C)(C)O3)nc2ccccc12 (centres undefined) ?
Solution: label 0

Exercise: What would you report for `CC1=C(C)[C@@]2(C)O[C@@]2(C)O[C@@]2(C)O[C@@]12C` ?
Solution: label 0

Exercise: What would you report for `Cc1ccc2cc3cccc(C(=O)NCCN(C)C)c3nc2c1` ?
Solution: label 1

Exercise: What would you report for `Nc1nc(Nc2ccccc2)c2[nH]cnc2n1` ?
Solution: label 0

###

System: COLO 205
Assay: NCI tumour cell line growth inhibition, 48 h
Active and inactive are the calls of the source. Cut-off read from the data, not from the text of the source: active = GI50 up to about 1.1 µM and inactive = higher.
Outcomes you can answer with include only these: Y = active, N = inactive

Recorded results for 5 compounds are shown here.
CCOC(=O)/C(C#N)=C/c1ccc2c(c1)CC1(C2)Cc2cc(CC)c(C(C)O)cc2C1 (stereo unspecified): N
CCOP(=O)(OCC)C(C(=O)OC)C(=O)C(=O)Nc1cccc(O)c1 (stereo unspecified): N
CCOC(=O)c1cc(-c2ccc(OC)c(OC)c2)c[nH]1: N
Cc1cc(Cl)ccc1NC(=O)CC/C(CC(=O)C(C)C)=N\NC(=O)C[n+]1ccccc1: N
COc1ccc(O)c(C(=O)CCC(=O)O)c1: N

Exercise: Could you check what this test reported for `COC(=O)C(CCC#N)(CCC#N)C(=O)OC` ?
Solution: N

Exercise: What would you report for `CC(C)N1CC2CN(Cc3ccccc3)CC(C1)C2=O` ?
Solution: N

Exercise: What would you report for Cc1ccc(OCC2OC(n3cnc4c(Cl)nc(Cl)nc43)CC2Oc2ccc(C)cc2)cc1 (stereo unspecified) ?
Solution: N

###

GI50 overview
Tested on: HCT-116
Experiment: NCI tumour cell line growth inhibition, 48 h
Active and inactive are the calls of the source. Rule as the data show it: active = GI50 up to about 1.1 µM and inactive = higher.

Some solved cases for reference:
O=C(O)CSc1nnc(-c2ccco2)[nH]1: > 100 µM (inactive)
S=c1cc(-c2ccc3c(c2)OCO3)s[nH]1: > 100 µM (inactive)

Please examine the following record next.
Exercise: Consider the compound `COc1ccc(N(C)Sc2ccccc2)cc1` and give its measured GI50.
Solution: 43.7 µM (inactive)
